biological target: DGAT1 (Homo sapiens, UniProt O75907); experiment: Human DGAT1 IC50 enzyme assay (Flashplate, 14C-labeled acyl-CoA); format: biochemical; design: made in house; conditions: first determination; read-out: hDGAT1 IC50(nM) First
Sequence (O75907 whole entry): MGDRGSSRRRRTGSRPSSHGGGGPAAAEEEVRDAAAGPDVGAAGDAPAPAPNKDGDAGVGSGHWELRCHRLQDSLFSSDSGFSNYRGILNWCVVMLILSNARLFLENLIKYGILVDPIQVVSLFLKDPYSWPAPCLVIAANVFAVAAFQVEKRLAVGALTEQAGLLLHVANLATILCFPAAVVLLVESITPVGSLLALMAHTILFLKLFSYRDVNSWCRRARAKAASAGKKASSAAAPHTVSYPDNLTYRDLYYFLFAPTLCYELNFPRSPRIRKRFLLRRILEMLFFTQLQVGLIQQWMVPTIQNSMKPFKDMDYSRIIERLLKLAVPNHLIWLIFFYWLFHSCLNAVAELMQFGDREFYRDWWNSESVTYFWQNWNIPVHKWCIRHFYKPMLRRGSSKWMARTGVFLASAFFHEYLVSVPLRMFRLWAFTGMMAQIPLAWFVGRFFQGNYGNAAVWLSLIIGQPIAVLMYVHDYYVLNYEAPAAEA
For each of the molecules below, state its IC50.
Just the number in nM, nothing appended.

Input line: Reported IC50 for DGAT1 (Homo sapiens, UniProt O75907), given Nc1ncnc2c1C(=O)N(c1ccc(N3CCN(CC(=O)O)C3=O)c(C(F)(F)F)c1)CCO2 [Compound 25] ?
Output line: 57.2

Input line: Let us now turn to CCC(C(=O)O)n1cc(-c2ccc(N3CCOc4ncnc(N)c4C3=O)cc2C)cn1 (centres unmarked) [Compound 64]
Output line: 38.7

Input line: Let us now turn to Cc1cc(N2CCOc3ncnc(N)c3C2=O)cc(C)c1-c1c(C)nn(CC(F)(F)F)c1C [Compound 93]
Output line: 64.5

Input line: Let us now turn to Cc1nn(CCC(=O)O)c(C)c1-c1ccc(N2CCOc3ncnc(N)c3C2=O)cc1 [Compound 76]
Output line: 14.6

Input line: Let us now turn to CC(C)(C)Cn1cc(-c2ccc(N3CCOc4ncnc(N)c4C3=O)cc2Cl)cn1 [Compound 88]
Output line: 27

Input line: Let us now turn to Cc1cc(N2CCOc3ncnc(N)c3C2=O)cc(C)c1-c1cn(CC(C)(C)F)nc1C [Compound 97]
Output line: 30.3

Input line: Let us now turn to Cc1cc(N2CCOc3ncnc(N)c3C2=O)cc(C)c1-c1cn(CC(F)(F)F)nc1C [Compound 41]
Output line: 37.7

Input line: Let us now turn to Cc1cc(N2CCOc3ncnc(N)c3C2=O)ccc1-c1cnn(C(C(=O)O)C(C)C)c1 (centres unmarked) [Compound 59]
Output line: 54.9

Input line: Let us now turn to Nc1ncnc2c1C(=O)N(c1ccc(N3CCN(CC(=O)O)C3=O)c(Cl)c1)CCO2 [Compound 1]
Output line: 53.3

Input line: Let us now turn to Cc1cc(N2CCOc3ncnc(N)c3C2=O)cc(C)c1-c1cn(CC2(C)COC2)nc1C [Compound 47]
Output line: 65.4

Input line: Let us now turn to Cc1nn(CCC(=O)O)c(C)c1-c1ccc(N2CCOc3ncnc(N)c3C2=O)cc1Cl [Compound 38]
Output line: 46.5

Input line: Let us now turn to Cc1cc(N2CCOc3ncnc(N)c3C2=O)cc(C)c1-c1cn(CCC(=O)O)nc1C [Compound 83]
Output line: 52.8

Input line: Let us now turn to Cc1cc(N2CCOc3ncnc(N)c3C2=O)ccc1N1CCN(CC(=O)O)C1=O [Compound 3]
Output line: 60.9

Input line: Let us now turn to CC(C)(F)Cn1cc(-c2ccc(N3CCOc4ncnc(N)c4C3=O)cc2Cl)cn1 [Compound 91]
Output line: 12.5

Input line: Let us now turn to CC(C)(O)Cn1cc(-c2ccc(N3CCOc4ncnc(N)c4C3=O)cc2Cl)cn1 [Compound 42]
Output line: 75

Input line: Let us now turn to CCc1cc(N2CCOc3ncnc(N)c3C2=O)cc(CC)c1N1CCN(CC(=O)O)C1=O [Compound 19]
Output line: 136

Input line: Let us now turn to Nc1ncnc2c1C(=O)N(c1ccc(N3CCN(CC(F)(F)F)C3=O)c(Cl)c1)CCO2 [Compound 8]
Output line: 41.9
